System: axenic L.donovani amastigotes, GE1 (isolated strain resistant to SSG)
protocolNotes: Antileishmanial activity against axenic amastigotes, GE1
Type: cell-based
experimentalSetup: Leishmania donovani; axenic amastigotes; mean ± σ, n = 4
metricName: IC50

Illustrative cases are given below, each with its answer.
molecule: NC[C@@H]1O[C@H](O[C@H]2[C@@H](O)[C@H](O[C@@H]3[C@@H](O)[C@H](N)C[C@H](N)[C@H]3O[C@H]3O[C@H](CO)[C@@H](O)[C@H](O)[C@H]3N)O[C@@H]2CO)[C@H](N)[C@@H](O)[C@@H]1O [PMM, paromomycin]
IC50: 25000 nM
//
molecule: CCCCCCCCCCCCCCCCOP(=O)([O-])OCC[N+](C)(C)C [MF, miltefosine]
IC50: 500 nM
//
molecule: C[C@@H]1[C@H](O)[C@@H](C)/C=C/C=C/C=C/C=C/C=C/C=C/C=C/[C@H](O[C@@H]2O[C@H](C)[C@@H](O)[C@H](N)[C@@H]2O)C[C@@H]2O[C@](O)(C[C@@H](O)C[C@@H](O)[C@H](O)CC[C@@H](O)C[C@@H](O)CC(=O)O[C@H]1C)C[C@H](O)[C@H]2C(=O)O [AmB, amphotericin B]
IC50: 300 nM

[ask] Using the record for CC(C)(C)[C@H]1CC[C@H](CC2=C(O)C(=O)c3ccccc3C2=O)CC1 [BPQ, Buparvaquone] , report its IC50.
[reply] 4100 nM

---

System: resident peritoneal macrophages
protocolNotes: Cytotoxicity studies (CC50) on peritoneal macrophages
Type: cell-based, BALB/c mice
experimentalSetup: 48 h exposure, mean ± σ, n = 3, read-out: CC50
metricName: CC50 (µM)
Numbers only, in µM.

[ask] Using the record for CC(C)(C)[C@H]1CC[C@H](CC2=C(O)C(=O)c3ccccc3C2=O)CC1 , report its CC50.
[reply] 330

---

System: intracellular L.donovani amastigotes, AG83-R, SSG, in macrophages
protocolNotes: microbe, parasite or virus in culture
Assay type: cell-based
experimentalSetup: Leishmania donovani, Macrophage, 72 h, read-out: Cellular IC50, AG83-R, SSG
metricName: pIC50
One number for each entry, as −log10 of the molar value.

Illustrative cases are given below, each with its answer.
compoundString: CC(C)(C)[C@H]1CC[C@H](CC2=C(O)C(=O)c3ccccc3C2=O)CC1
pIC50: 5.27

compoundString: C[C@@H]1[C@H](O)[C@@H](C)/C=C/C=C/C=C/C=C/C=C/C=C/C=C/[C@H](O[C@@H]2O[C@H](C)[C@@H](O)[C@H](N)[C@@H]2O)C[C@@H]2O[C@](O)(C[C@@H](O)C[C@@H](O)[C@H](O)CC[C@@H](O)C[C@@H](O)CC(=O)O[C@H]1C)C[C@H](O)[C@H]2C(=O)O
pIC50: 6.70

compoundString: NC[C@@H]1O[C@H](O[C@H]2[C@@H](O)[C@H](O[C@@H]3[C@@H](O)[C@H](N)C[C@H](N)[C@H]3O[C@H]3O[C@H](CO)[C@@H](O)[C@H](O)[C@H]3N)O[C@@H]2CO)[C@H](N)[C@@H](O)[C@@H]1O
pIC50: 3.85

Moving on to the next compound.
[ask] Using the record for CCCCCCCCCCCCCCCCOP(=O)([O-])OCC[N+](C)(C)C , report its pIC50.
[reply] 6.15

Hey, just so you know, these numbers are from paper PMC8274846.
